biological target: Hepatitis C virus serine protease, NS3/NS4A (Hepatitis C virus, UniProt A3EZI9+D2K2A8); test: Inhibition of HCV serine protease NS3/NS4A in the presence of Zn; type: protein-complex assay, Hepacivirus hominis
Sequence (D2K2A8 whole entry): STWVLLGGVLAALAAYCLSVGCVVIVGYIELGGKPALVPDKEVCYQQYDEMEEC
Sequence (A3EZI9 whole entry): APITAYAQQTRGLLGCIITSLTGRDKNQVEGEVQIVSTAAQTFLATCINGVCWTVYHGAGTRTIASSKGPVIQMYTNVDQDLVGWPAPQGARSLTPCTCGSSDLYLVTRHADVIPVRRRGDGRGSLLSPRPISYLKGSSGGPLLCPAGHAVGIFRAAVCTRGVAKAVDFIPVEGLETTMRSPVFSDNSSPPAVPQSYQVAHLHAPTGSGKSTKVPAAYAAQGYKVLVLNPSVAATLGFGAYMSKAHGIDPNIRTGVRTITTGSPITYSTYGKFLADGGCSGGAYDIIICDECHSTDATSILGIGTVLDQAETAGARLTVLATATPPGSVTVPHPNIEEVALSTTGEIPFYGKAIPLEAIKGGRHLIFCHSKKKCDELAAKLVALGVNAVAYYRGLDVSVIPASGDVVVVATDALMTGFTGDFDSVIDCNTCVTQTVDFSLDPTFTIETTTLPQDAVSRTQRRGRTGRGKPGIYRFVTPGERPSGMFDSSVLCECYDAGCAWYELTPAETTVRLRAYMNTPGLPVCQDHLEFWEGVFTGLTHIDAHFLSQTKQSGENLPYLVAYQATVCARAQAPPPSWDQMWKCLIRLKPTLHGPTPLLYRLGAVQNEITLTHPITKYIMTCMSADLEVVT
Rule: Ki below 0.2 µM gives satisfied, anything at or above gives not satisfied.

Past entries and their recorded results:
compound	assay target	cat
Cn1c(Cc2nc3ccc(C(=O)NC(CP(=O)(O)O)C(=O)O)cc3[nH]2)nc2ccc(C(=O)NC(CP(=O)(O)O)C(=O)O)cc21 (stereo not drawn)	Hepatitis C virus serine protease, NS3/NS4A (Hepatitis C virus, UniProt A3EZI9+D2K2A8)	satisfied
Cn1c(C(F)(F)c2nc3ccc(C(=O)NC(CP(=O)(O)O)C(=O)O)cc3[nH]2)nc2ccc(C(=O)NC(CP(=O)(O)O)C(=O)O)cc21 (stereo not drawn)	Hepatitis C virus serine protease, NS3/NS4A (Hepatitis C virus, UniProt A3EZI9+D2K2A8)	satisfied
Cc1ccc2nc(Cc3nc4ccc(C(=O)NC(CP(=O)(O)O)C(=O)O)cc4n3C)[nH]c2c1 (stereo not drawn)	Hepatitis C virus serine protease, NS3/NS4A (Hepatitis C virus, UniProt A3EZI9+D2K2A8)	not satisfied
CC(c1ncc[nH]1)c1nc2ccc(C(=O)NC(CP(=O)(O)O)C(=O)O)cc2n1C (stereo not drawn)	Hepatitis C virus serine protease, NS3/NS4A (Hepatitis C virus, UniProt A3EZI9+D2K2A8)	not satisfied
CC(c1nc2ccccc2[nH]1)c1nc2ccc(C(=O)NC(CP(=O)(O)O)C(=O)O)cc2n1C (stereo not drawn)	Hepatitis C virus serine protease, NS3/NS4A (Hepatitis C virus, UniProt A3EZI9+D2K2A8)	not satisfied

I'd appreciate it if you could check whether Cn1c(C(F)c2nc3c(F)c(F)cc(F)c3[nH]2)nc2ccc(C(=O)NC(CP(=O)(O)O)C(=O)O)cc21 (stereo not drawn) has Ki smaller than 0.2 µM.
not satisfied

Identify whether the compound Cn1c(Cc2nc3c(F)cc(F)cc3[nH]2)nc2ccc(C(=O)NC(CP(=O)(O)O)C(=O)O)cc21 (stereo not drawn) records Ki below 0.2 µM.
not satisfied

* * *

biological target: Hepatitis C virus serine protease, NS3/NS4A (Hepatitis C virus, UniProt A3EZI9+D2K2A8); assay: Inhibition of HCV serine protease NS3/NS4A in the presence of EDTA; format: protein-complex assay, Hepacivirus hominis
parameter: Ki (µM)
Write it as a number; the unit µM goes unstated.

molecule	unit string	Ki
Cn1c(Cc2nc3c(F)cc(F)cc3[nH]2)nc2ccc(C(=O)NC(CP(=O)(O)O)C(=O)O)cc21 (stereo not drawn)	µM	58
Cn1c(Cc2nc3ccc(Cl)cc3[nH]2)nc2ccc(C(=O)NC(CP(=O)(O)O)C(=O)O)cc21 (stereo not drawn)	µM	130
Cn1c(Cc2nc3ccc(C(=O)NC(CP(=O)(O)O)C(=O)O)cc3n2C)nc2ccccc21 (stereo not drawn)	µM	140
Cn1c(Cc2nc3cc(F)c(F)cc3[nH]2)nc2ccc(C(=O)NC(CP(=O)(O)O)C(=O)O)cc21 (stereo not drawn)	µM	25
CC(c1ncc[nH]1)c1nc2ccc(C(=O)NC(CP(=O)(O)O)C(=O)O)cc2n1C (stereo not drawn)	µM	110

Hello, I am looking for reported Ki with Hepatitis C virus serine protease, NS3/NS4A (Hepatitis C virus, UniProt A3EZI9+D2K2A8) for Cn1c(Cc2nc3cc(F)ccc3[nH]2)nc2ccc(C(=O)NC(CP(=O)(O)O)C(=O)O)cc21 (stereo not drawn) . Could you help?
95

Given the entry CC(c1nc2ccccc2[nH]1)c1nc2cccc(C(=O)NC(CP(=O)(O)O)C(=O)O)c2n1C (stereo not drawn) , what Ki was observed with Hepatitis C virus serine protease, NS3/NS4A (Hepatitis C virus, UniProt A3EZI9+D2K2A8)?
181

Hi! What's the reported Ki for Cn1c(Cc2nc3cc(C(F)(F)F)ccc3[nH]2)nc2ccc(C(=O)NC(CP(=O)(O)O)C(=O)O)cc21 (stereo not drawn) on Hepatitis C virus serine protease, NS3/NS4A (Hepatitis C virus, UniProt A3EZI9+D2K2A8)?
70

# returns recorded Ki (system: Hepatitis C virus serine protease, NS3/NS4A (Hepatitis C virus, UniProt A3EZI9+D2K2A8)) for CC(=O)NCc1nc2ccc(C(=O)NC(CP(=O)(O)O)C(=O)O)cc2n1C (stereo not drawn)
150

Write down the reported Ki of COP(=O)(O)CC(NC(=O)c1ccc2nc(Cc3nc4ccc(C(N)=O)cc4[nH]3)n(C)c2c1)C(=O)O (stereo not drawn) , test system: Hepatitis C virus serine protease, NS3/NS4A (Hepatitis C virus, UniProt A3EZI9+D2K2A8).
38.1

Give Hepatitis C virus serine protease, NS3/NS4A (Hepatitis C virus, UniProt A3EZI9+D2K2A8) Ki for CC(c1nc2ccccc2[nH]1)c1nc2ccc(C(=O)NC(CP(=O)(O)O)C(=O)O)cc2n1C (stereo not drawn)
215

Reference for the values: ChEMBL document CHEMBL1134940
